Reference source: PubChem BioAssay (NCI)

test system: NCI-H322M lung; experiment: NCI-60 one-dose screen, 48 h; conditions: 10 µM unless noted
Compounds without any hit were thinned out: in the full panel of roughly 83,000, 20% have a hit. Activity calls are given as the source filed them. The calls were made as follows: active = growth percent below 10; inactive = the rest.
Mark one answer only. Choices: Yes (active), No (inactive)

COMPOUND	ASSIGNED CLASS
O=c1c(/C=C/c2c(O)ccc3ccccc23)nnc2sc(-c3cccc([N+](=O)[O-])c3)nn12	No
Cc1cc(C)n(C(=O)CSc2nc3sc4c(c3c(=O)n2-c2ccccc2)CCCCC4)n1	No
CC1=NN(c2cccc(Cl)c2)C(=O)/C1=C\C=C\c1ccccc1	No

*Q* Call for entry Cc1c(Cl)cccc1NC(=O)c1sc2nc3c(cc2c1N)CCCC3 :
*A* No

*Q* Call for entry C#Cc1ccc(NC(=O)Cc2ccc(/C=C/C(=O)c3nccn3C)cc2)cc1 :
*A* No

*Q* Call for entry Nc1nc(=O)n([C@H]2CC=C(CO)O2)cc1F :
*A* No

*Q* Call for entry CCCC1Cc2cc(-n3nc(C)c4c3CC(C)(C)CC4=O)cc(NC3CCC(O)CC3)c2C(=O)N1 (stereo not drawn) :
*A* No

*Q* Call for entry CO[C@H]1/C=C/O[C@@]2(C)Oc3c(C)c(O)c4c(O)c(c5c(nc6cc(C)ccn65)c4c3C2=O)NC(=O)/C(C)=C\C=C\[C@H](C)[C@H](O)[C@@H](C)C(O)[C@@H](C)[C@H](OC(C)=O)[C@@H]1C (stereo partly drawn) :
*A* No

*Q* Call for entry CCCC[N+]1(C)CCN=C1Cc1ccccc1 (stereo not drawn) :
*A* No
